Exercise: state measured branches per spheroid, LOC cells, 2.5 nM for each of the binders provided.
# Study system: native human MET on living cells (human, UniProt P08581 25-1390)
# Sequence (P08581 25-1390): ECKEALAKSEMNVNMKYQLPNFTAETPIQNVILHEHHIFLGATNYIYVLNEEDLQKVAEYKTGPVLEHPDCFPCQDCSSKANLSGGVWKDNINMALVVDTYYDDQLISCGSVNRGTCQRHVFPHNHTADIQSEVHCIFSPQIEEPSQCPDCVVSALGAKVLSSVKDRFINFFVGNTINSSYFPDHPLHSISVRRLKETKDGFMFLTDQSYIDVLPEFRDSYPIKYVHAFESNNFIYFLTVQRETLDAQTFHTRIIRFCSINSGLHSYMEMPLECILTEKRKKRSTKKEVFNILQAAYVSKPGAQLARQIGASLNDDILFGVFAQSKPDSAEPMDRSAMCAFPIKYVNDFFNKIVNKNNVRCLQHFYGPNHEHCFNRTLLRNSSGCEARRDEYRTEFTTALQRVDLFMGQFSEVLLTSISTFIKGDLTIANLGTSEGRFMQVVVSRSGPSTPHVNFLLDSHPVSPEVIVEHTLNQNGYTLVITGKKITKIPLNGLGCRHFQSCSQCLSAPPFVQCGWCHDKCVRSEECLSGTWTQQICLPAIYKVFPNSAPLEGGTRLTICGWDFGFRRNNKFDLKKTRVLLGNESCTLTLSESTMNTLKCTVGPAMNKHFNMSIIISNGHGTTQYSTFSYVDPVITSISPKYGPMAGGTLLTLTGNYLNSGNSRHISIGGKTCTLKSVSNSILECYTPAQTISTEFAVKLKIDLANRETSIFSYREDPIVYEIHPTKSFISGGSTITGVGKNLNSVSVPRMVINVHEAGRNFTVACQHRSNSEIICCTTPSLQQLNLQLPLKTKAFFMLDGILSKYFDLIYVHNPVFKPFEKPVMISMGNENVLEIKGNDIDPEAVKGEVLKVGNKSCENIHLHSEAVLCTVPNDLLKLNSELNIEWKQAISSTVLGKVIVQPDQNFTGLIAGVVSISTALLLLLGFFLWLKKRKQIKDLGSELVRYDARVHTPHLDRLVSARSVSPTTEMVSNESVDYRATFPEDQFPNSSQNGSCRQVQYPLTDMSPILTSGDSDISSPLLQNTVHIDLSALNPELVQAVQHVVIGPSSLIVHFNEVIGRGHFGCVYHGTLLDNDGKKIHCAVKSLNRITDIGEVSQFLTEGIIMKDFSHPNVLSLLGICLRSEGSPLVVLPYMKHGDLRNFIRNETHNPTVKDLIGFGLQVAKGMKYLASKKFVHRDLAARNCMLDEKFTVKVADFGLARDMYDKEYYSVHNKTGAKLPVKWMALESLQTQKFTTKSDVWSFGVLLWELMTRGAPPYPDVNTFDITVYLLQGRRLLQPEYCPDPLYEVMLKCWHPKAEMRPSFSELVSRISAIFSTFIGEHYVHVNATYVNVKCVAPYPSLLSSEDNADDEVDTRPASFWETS
# Method: cell-based or functional assay
Answers are plain numbers, in branches.

Guide cases for branches per spheroid, LOC cells, 2.5 nM, answers given:
| Binder | branches per spheroid, LOC cells, 2.5 nM, branches |
| --- | --- |
| 71G3 chimeric llama-human IgG1 mAb (antibody, V domains shown, llama VH on human IgG1 CH1-CH2-CH3, llama VL on human lambda CL) VH: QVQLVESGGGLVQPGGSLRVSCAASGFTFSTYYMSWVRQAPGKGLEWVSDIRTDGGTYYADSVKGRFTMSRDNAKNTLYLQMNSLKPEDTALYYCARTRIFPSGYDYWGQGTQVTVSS VL: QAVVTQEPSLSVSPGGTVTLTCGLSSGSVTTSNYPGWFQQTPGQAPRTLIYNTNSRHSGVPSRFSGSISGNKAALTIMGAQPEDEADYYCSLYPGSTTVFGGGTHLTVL | 19 |
| 71D4 chimeric llama-human IgG1 mAb (antibody, V domains shown, llama VH on human IgG1 CH1-CH2-CH3, llama VL on human lambda CL) VH: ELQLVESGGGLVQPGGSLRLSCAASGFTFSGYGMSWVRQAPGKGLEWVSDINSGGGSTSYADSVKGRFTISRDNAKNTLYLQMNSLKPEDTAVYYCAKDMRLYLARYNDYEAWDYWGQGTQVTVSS VL: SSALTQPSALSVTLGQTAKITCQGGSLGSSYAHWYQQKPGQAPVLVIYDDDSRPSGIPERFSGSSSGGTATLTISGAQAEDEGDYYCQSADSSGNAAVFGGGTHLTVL | 15.7 |
| 71C3 chimeric llama-human IgG1 mAb (antibody, V domains shown, llama VH on human IgG1 CH1-CH2-CH3, llama VL on human lambda CL) VH: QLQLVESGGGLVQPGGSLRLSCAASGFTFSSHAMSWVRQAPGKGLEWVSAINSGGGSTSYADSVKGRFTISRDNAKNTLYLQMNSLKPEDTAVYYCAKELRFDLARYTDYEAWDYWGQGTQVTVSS VL: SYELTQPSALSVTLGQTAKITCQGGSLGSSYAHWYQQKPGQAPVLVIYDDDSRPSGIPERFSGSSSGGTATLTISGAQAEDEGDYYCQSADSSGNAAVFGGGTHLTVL | 12.7 |

Kindly give each listed record's branches per spheroid, LOC cells, 2.5 nM.
1. 72F8 chimeric llama-human IgG1 mAb (antibody, V domains shown, llama VH on human IgG1 CH1-CH2-CH3, llama VL on human lambda CL) VH: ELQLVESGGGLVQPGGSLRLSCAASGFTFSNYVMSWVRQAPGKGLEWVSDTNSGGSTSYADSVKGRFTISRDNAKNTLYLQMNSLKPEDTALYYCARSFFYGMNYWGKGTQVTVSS VL: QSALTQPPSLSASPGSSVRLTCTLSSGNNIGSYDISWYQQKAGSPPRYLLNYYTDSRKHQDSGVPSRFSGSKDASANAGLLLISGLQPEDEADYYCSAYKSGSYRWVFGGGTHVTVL
2. 76H10 chimeric llama-human IgG1 mAb (antibody, V domains shown, llama VH on human IgG1 CH1-CH2-CH3, llama VL on human lambda CL) VH: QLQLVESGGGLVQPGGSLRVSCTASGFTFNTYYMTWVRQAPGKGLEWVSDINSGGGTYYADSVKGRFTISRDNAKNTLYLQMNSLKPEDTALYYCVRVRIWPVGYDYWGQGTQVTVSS VL: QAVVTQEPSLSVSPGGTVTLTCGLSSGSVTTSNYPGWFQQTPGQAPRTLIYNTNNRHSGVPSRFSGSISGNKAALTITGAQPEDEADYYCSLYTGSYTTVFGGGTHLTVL

Result ::
[12.3, 11.7]
